B1: library; a variant is named by its letters at N, in order (parent)
chain: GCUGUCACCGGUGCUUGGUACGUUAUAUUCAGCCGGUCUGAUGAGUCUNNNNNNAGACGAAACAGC

variants of: B1; assay: normalized RNA/DNA level without ligand (relative to sTRSVctl = 100) (log10 (% of sTRSVctl)); HEK293T overexpressing SLC46A1; higher = less ribozyme self-cleavage, higher mRNA level; settings: without (6R,S)-folinic acid; ligand present: no
normalized RNA/DNA level without ligand (log10) values for the variants below.
measurement-label: normalized RNA/DNA level without ligand (log10)

INSERT INTO measurements (item_sequence, result) VALUES
  ('GCUGUCACCGGUGCUUGGUACGUUAUAUUCAGCCGGUCUGAUGAGUCUAUUUGCAGACGAAACAGC [AUUUGC]', 2),
  ('GCUGUCACCGGUGCUUGGUACGUUAUAUUCAGCCGGUCUGAUGAGUCUUUCCGUAGACGAAACAGC [UUCCGU]', 2.04),
  ('GCUGUCACCGGUGCUUGGUACGUUAUAUUCAGCCGGUCUGAUGAGUCUUGGUCUAGACGAAACAGC [UGGUCU]', 1.99),
  ('GCUGUCACCGGUGCUUGGUACGUUAUAUUCAGCCGGUCUGAUGAGUCUGCACAAAGACGAAACAGC [GCACAA]', 1.98),
  ('GCUGUCACCGGUGCUUGGUACGUUAUAUUCAGCCGGUCUGAUGAGUCUGCGUAGAGACGAAACAGC [GCGUAG]', 1.96),
  ('GCUGUCACCGGUGCUUGGUACGUUAUAUUCAGCCGGUCUGAUGAGUCUUCUUCGAGACGAAACAGC [UCUUCG]', 1.91),
  ('GCUGUCACCGGUGCUUGGUACGUUAUAUUCAGCCGGUCUGAUGAGUCUUAGCGGAGACGAAACAGC [UAGCGG]', 1.67),
  ('GCUGUCACCGGUGCUUGGUACGUUAUAUUCAGCCGGUCUGAUGAGUCUUGCAUGAGACGAAACAGC [UGCAUG]', 1.73),
  ('GCUGUCACCGGUGCUUGGUACGUUAUAUUCAGCCGGUCUGAUGAGUCUAUAGCCAGACGAAACAGC [AUAGCC]', 2.04),
  ('GCUGUCACCGGUGCUUGGUACGUUAUAUUCAGCCGGUCUGAUGAGUCUUUAGGCAGACGAAACAGC [UUAGGC]', 1.97),
  ('GCUGUCACCGGUGCUUGGUACGUUAUAUUCAGCCGGUCUGAUGAGUCUGAUAAAAGACGAAACAGC [GAUAAA]', 1.96),
  ('GCUGUCACCGGUGCUUGGUACGUUAUAUUCAGCCGGUCUGAUGAGUCUUGCGCAAGACGAAACAGC [UGCGCA]', 1.95),
  ('GCUGUCACCGGUGCUUGGUACGUUAUAUUCAGCCGGUCUGAUGAGUCUGCGGCAAGACGAAACAGC [GCGGCA]', 2.07),
  ('GCUGUCACCGGUGCUUGGUACGUUAUAUUCAGCCGGUCUGAUGAGUCUCGUCUCAGACGAAACAGC [CGUCUC]', 2.06),
  ('GCUGUCACCGGUGCUUGGUACGUUAUAUUCAGCCGGUCUGAUGAGUCUCCACAUAGACGAAACAGC [CCACAU]', 1.96),
  ('GCUGUCACCGGUGCUUGGUACGUUAUAUUCAGCCGGUCUGAUGAGUCUAGGGGCAGACGAAACAGC [AGGGGC]', 2.05),
  ('GCUGUCACCGGUGCUUGGUACGUUAUAUUCAGCCGGUCUGAUGAGUCUGCGCAUAGACGAAACAGC [GCGCAU]', 1.98),
  ('GCUGUCACCGGUGCUUGGUACGUUAUAUUCAGCCGGUCUGAUGAGUCUUGAUCAAGACGAAACAGC [UGAUCA]', 1.99),
  ('GCUGUCACCGGUGCUUGGUACGUUAUAUUCAGCCGGUCUGAUGAGUCUUCUGUAAGACGAAACAGC [UCUGUA]', 1.96),
  ('GCUGUCACCGGUGCUUGGUACGUUAUAUUCAGCCGGUCUGAUGAGUCUCGAGAGAGACGAAACAGC [CGAGAG]', 1.96),
  ('GCUGUCACCGGUGCUUGGUACGUUAUAUUCAGCCGGUCUGAUGAGUCUAUCUCGAGACGAAACAGC [AUCUCG]', 1.98),
  ('GCUGUCACCGGUGCUUGGUACGUUAUAUUCAGCCGGUCUGAUGAGUCUCUAGGAAGACGAAACAGC [CUAGGA]', 2.02);
